measuredOn: acetylcholine esterase (Homo sapiens)
protocol: biochemical
condition: read-out: AchE inhibition IC50 (30′)
Hi there, I'd appreciate the recorded pIC50 for every entry that follows.
One number for each entry, as −log10 of the molar value.

Known results for molecules:
| sampleSmiles | pIC50 |
| --- | --- |
| C[N+](C)(C)c1ccc2oc(-c3ccccc3)cc(=O)c2c1 | 4.32 |
| COc1ccc(-c2cc(=O)c3cc([N+](C)(C)C)ccc3o2)cc1 | 5.22 |

For the next question, use this molecule.
Noted pIC50 for `CN(C)CCOc1cccc(-c2cc(=O)c3ccccc3o2)c1` , tested on acetylcholine esterase (Homo sapiens): 5.24

* * *

Hi there, I'd appreciate the recorded IC50 for every entry that follows.
measuredOn: acetylcholine esterase (Homo sapiens, UniProt P22303)
Sequence (P22303 32-614): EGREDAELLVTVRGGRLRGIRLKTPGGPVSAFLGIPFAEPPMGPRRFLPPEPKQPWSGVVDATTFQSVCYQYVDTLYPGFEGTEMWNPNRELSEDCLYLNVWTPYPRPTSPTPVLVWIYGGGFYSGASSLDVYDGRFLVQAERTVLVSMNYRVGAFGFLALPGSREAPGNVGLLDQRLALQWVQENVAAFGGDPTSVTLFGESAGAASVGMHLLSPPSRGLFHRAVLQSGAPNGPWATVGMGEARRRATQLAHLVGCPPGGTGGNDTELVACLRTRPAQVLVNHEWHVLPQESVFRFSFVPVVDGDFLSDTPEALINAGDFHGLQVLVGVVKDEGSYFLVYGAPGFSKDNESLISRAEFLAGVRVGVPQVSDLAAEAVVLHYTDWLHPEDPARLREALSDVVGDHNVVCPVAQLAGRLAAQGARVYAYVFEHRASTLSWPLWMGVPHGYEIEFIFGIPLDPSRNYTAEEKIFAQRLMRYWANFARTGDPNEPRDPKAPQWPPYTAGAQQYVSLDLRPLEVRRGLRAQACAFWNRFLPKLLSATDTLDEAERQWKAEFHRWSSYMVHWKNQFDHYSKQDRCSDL
protocol: biochemical
condition: time not given; read-out: AchE inhibition IC50
Numbers only, in µM.

Known results for molecules:
| sampleSmiles | measuredOn | IC50 [µM] |
| --- | --- | --- |
| CCN(C)C(=O)Oc1cccc(-c2cc(=O)c3ccccc3o2)c1 | acetylcholine esterase (Homo sapiens, UniProt P22303) | 41 |
| CN(C)C(=O)Oc1ccccc1-c1cc(=O)c2ccccc2o1 | acetylcholine esterase (Homo sapiens, UniProt P22303) | 2.65 |

Could I get IC50 for every one of these entries?
1. CCN(C)C(=O)Oc1ccccc1-c1cc(=O)c2ccccc2o1
2. CN(C)C(=O)Oc1cccc(-c2cc(=O)c3ccccc3o2)c1

1. 3.5
2. 1.4
